The origin of these recorded values is patent US10336730B2.

Molecular target: purified human Factor XIa (Homo sapiens)
pKi: −log10 of the molar value.
# if value of pKi reaches 7, tag MET; if it stays below, tag NOT MET

[[record]]
chemical_structure = "O=C(NCc1n[nH]c2c1CCCC2)[C@H](Cc1ccccc1)n1cnc(-c2cc(Cl)ccc2-n2cc(Cl)nn2)cc1=O"
class_name = "NOT MET"

[[record]]
chemical_structure = "NC(=O)CNC(=O)[C@H](Cc1ccccc1)n1cnc(-c2cc(Cl)ccc2-n2cc(Cl)nn2)cc1=O"
class_name = "NOT MET"

[[record]]
chemical_structure = "O=C1Cc2cc(NC(=O)[C@H](Cc3ccccc3)n3cnc(-c4cc(Cl)ccc4-n4cc(Cl)nn4)cc3=O)ccc2N1"
class_name = "MET"


###

Target: purified human Factor XIa (Homo sapiens, UniProt P03951)
Sequence (P03951 388-625 limits assumed): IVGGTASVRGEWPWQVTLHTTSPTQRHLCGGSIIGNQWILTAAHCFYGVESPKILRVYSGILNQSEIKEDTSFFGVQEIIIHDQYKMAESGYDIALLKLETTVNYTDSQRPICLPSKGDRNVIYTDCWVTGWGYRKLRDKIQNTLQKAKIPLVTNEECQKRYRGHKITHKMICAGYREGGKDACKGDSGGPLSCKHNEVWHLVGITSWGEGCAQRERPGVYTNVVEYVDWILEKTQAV
Sequence (P03951 19-387 partner limits assumed): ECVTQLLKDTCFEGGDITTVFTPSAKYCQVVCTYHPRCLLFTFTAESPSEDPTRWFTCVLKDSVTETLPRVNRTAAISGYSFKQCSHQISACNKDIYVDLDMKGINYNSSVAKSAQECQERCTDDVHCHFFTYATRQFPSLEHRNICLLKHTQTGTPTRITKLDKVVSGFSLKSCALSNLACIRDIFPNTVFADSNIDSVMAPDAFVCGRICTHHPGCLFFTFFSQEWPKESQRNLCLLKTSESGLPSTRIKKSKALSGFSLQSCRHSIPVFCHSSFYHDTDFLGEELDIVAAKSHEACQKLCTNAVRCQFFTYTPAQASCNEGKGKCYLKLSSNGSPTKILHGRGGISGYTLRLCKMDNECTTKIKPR
Classification by Ki follows these ranges: lowest = under 200 nM, middle = from 200 nM up to 5000 nM, highest = 5000 nM and over

[[record]]
compound = "NC(=O)CCNC(=O)[C@H](Cc1ccccc1)n1cnc(-c2cc(Cl)ccc2-n2cc(Cl)nn2)cc1=O"
class_name = "highest"

[[record]]
compound = "COC(=O)Cn1cc(NC(=O)[C@H](Cc2ccccc2)n2cnc(-c3cc(Cl)ccc3-n3cc(Cl)nn3)cc2=O)cn1"
class_name = "lowest"

[[record]]
compound = "O=C(O)Cn1cc(NC(=O)[C@H](Cc2ccccc2)n2cnc(-c3cc(Cl)ccc3-n3cc(Cl)nn3)cc2=O)cn1"
class_name = "lowest"

[[record]]
compound = "O=C([C@H](Cc1ccccc1)n1cnc(-c2cc(Cl)ccc2-n2cc(Cl)nn2)cc1=O)N1CCC(c2ccccc2)CC1"
class_name = "middle"

[[record]]
compound = "CN(C)CCCNC(=O)[C@H](Cc1ccccc1)n1cnc(-c2cc(Cl)ccc2-n2cc(Cl)nn2)cc1=O"
class_name = "highest"

[[record]]
compound = "O=C(NC1COc2ccccc21)[C@H](Cc1ccccc1)n1cnc(-c2cc(Cl)ccc2-n2cc(Cl)nn2)cc1=O (stereo partly drawn)"
class_name = "middle"

[[record]]
compound = "O=C(NCc1cccnc1)[C@H](Cc1ccccc1)n1cnc(-c2cc(Cl)ccc2-n2cc(Cl)nn2)cc1=O"
class_name = "middle"

[[record]]
compound = "O=C(Nc1ccc2[nH]c(C(F)(F)F)nc2c1)[C@H](Cc1ccccc1)n1cnc(-c2cc(Cl)ccc2-n2cc(Cl)nn2)cc1=O"
class_name = "lowest"

[[record]]
compound = "CN1CCC2(CCCN(C(=O)[C@H](Cc3ccccc3)n3cnc(-c4cc(Cl)ccc4-n4cc(Cl)nn4)cc3=O)C2)C1=O (stereo partly drawn)"
class_name = "highest"

[[record]]
compound = "O=C(O)c1ccc(NC(=O)[C@H](Cc2ccccc2)N2CCC(c3cc(Cl)ccc3-n3cc(Cl)nn3)=CC2=O)cc1"
class_name = "lowest"

[[record]]
compound = "O=C(NCc1ccccc1)[C@H](Cc1ccccc1)n1cnc(-c2cc(Cl)ccc2-n2cc(Cl)nn2)cc1=O"
class_name = "middle"

[[record]]
compound = "N#Cc1ccc(NC(=O)[C@H](Cc2ccccc2)n2cnc(-c3cc(Cl)ccc3-n3cc(Cl)nn3)cc2=O)cn1"
class_name = "middle"

[[record]]
compound = "O=C(NCCc1ncn[nH]1)[C@H](Cc1ccccc1)n1cnc(-c2cc(Cl)ccc2-n2cc(Cl)nn2)cc1=O"
class_name = "highest"

[[record]]
compound = "O=C(Nc1ccc(-c2ccncc2)cc1)[C@H](Cc1ccccc1)n1cnc(-c2cc(Cl)ccc2-n2cc(Cl)nn2)cc1=O"
class_name = "lowest"

[[record]]
compound = "O=C(Nc1noc2cc(Br)ccc12)[C@H](Cc1ccccc1)n1cnc(-c2cc(Cl)ccc2-n2cc(Cl)nn2)cc1=O"
class_name = "middle"

[[record]]
compound = "O=C(O)c1ccc(NC(=O)C(Cc2ccccc2)N2CCC(c3c(F)ccc(Cl)c3F)=CC2=O)cc1 (stereo not drawn)"
class_name = "lowest"

[[record]]
compound = "O=C([C@H](Cc1ccccc1)n1cnc(-c2cc(Cl)ccc2-n2cc(Cl)nn2)cc1=O)N1CCn2ncnc2C1"
class_name = "highest"

[[record]]
compound = "O=C(Nc1ccnc2ccc(C(F)(F)F)cc12)[C@H](Cc1ccccc1)n1cnc(-c2cc(Cl)ccc2-n2cc(Cl)nn2)cc1=O"
class_name = "highest"

[[record]]
compound = "O=C(O)c1ccc(NC(=O)[C@H](Cc2ccccc2)N2CCC(c3c(-n4ccnn4)ccc(Cl)c3F)=CC2=O)cc1"
class_name = "lowest"

[[record]]
compound = "CC(C)c1nnc2n1CCN(C(=O)[C@H](Cc1ccccc1)n1cnc(-c3cc(Cl)ccc3-n3cc(Cl)nn3)cc1=O)C2"
class_name = "highest"

[[record]]
compound = "CCn1nc(C)cc1NC(=O)[C@H](Cc1ccccc1)n1cnc(-c2cc(Cl)ccc2-n2cc(Cl)nn2)cc1=O"
class_name = "middle"

[[record]]
compound = "N#Cc1ccc(Cl)c(F)c1C1=CC(=O)N(C(Cc2ccccc2)C(=O)Nc2ccc(C(=O)O)cc2)CC1 (stereo not drawn)"
class_name = "lowest"

[[record]]
compound = "Cn1cc(NC(=O)[C@H](Cc2ccccc2)n2cnc(-c3cc(Cl)ccc3-n3cc(Cl)nn3)cc2=O)nn1"
class_name = "middle"

[[record]]
compound = "O=C(Nc1ccc(N2CCOCC2=O)cc1)[C@H](Cc1ccccc1)n1cnc(-c2cc(Cl)ccc2-n2cc(Cl)nn2)cc1=O"
class_name = "lowest"


###

Molecular target: purified human plasma kallikrein (Homo sapiens, UniProt P03952)
Sequence (P03952 391-638 limits assumed): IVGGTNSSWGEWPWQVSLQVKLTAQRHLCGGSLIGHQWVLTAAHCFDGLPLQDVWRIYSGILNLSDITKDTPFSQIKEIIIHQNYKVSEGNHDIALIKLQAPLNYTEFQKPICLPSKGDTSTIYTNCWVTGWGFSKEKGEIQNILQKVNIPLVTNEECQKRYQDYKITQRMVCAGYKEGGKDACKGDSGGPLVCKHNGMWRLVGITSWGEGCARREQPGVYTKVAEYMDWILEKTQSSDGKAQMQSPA
Sequence (P03952 20-390 partner limits assumed): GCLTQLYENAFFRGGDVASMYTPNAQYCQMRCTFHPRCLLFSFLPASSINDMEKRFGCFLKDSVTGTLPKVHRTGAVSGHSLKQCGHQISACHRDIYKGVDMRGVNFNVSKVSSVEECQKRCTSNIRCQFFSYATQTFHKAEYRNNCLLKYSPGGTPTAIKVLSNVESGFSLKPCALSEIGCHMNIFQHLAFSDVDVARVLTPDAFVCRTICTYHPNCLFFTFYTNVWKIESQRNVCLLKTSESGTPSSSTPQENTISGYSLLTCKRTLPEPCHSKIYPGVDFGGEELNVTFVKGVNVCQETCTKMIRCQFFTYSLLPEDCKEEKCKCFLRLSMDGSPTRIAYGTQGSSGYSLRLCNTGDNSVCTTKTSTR
Assay: Plasma kallikrein enzyme inhibition assay (chromogenic substrate S-2302), Ki
Details: substrate S-2302, pH 7.5
Assign labels as follows, please: condition met for Ki below 600 nM; condition not met for Ki equal to or exceeding 600 nM.

[[record]]
compound = "O=C(Nc1ccncc1)[C@H](Cc1ccccc1)n1cnc(-c2cc(Cl)ccc2-n2cc(Cl)nn2)cc1=O [Example 13]"
class_name = "condition not met"

[[record]]
compound = "O=C(O)c1ccc(NC(=O)[C@H](Cc2ccccc2)n2ncc(-c3cc(Cl)ccc3-n3cc(C(F)(F)F)nn3)cc2=O)cc1 [Example 143]"
class_name = "condition met"

[[record]]
compound = "O=C(Nc1ccc2cn[nH]c2c1)[C@H](Cc1ccccc1)n1cnc(-c2cc(Cl)ccc2-n2cc(Cl)nn2)cc1=O [Example 17]"
class_name = "condition met"

[[record]]
compound = "O=C(O)c1ccc(NC(=O)[C@H](Cc2ccccc2)n2ncc(-c3c(F)ccc(Cl)c3F)cc2=O)cc1 [Example 144]"
class_name = "condition not met"

[[record]]
compound = "O=C(O)Cn1cc(NC(=O)[C@H](Cc2ccccc2)n2cnc(-c3cc(Cl)ccc3-n3cc(Cl)nn3)cc2=O)cn1 [Example 11]"
class_name = "condition not met"

[[record]]
compound = "O=C(O)c1ccc(NC(=O)[C@H](Cc2ccccc2)n2cnc(-c3c(-n4cc(Cl)nn4)ccc(Cl)c3F)cc2=O)cc1 [Example 9]"
class_name = "condition met"

[[record]]
compound = "O=C(O)c1ccc(NC(=O)[C@H](Cc2ccccc2)n2cnc(-c3cc(Cl)ccc3-n3cc(Cl)nn3)cc2=O)cc1 [Example 15]"
class_name = "condition met"

[[record]]
compound = "O=C(O)c1ccc(NC(=O)[C@H](Cc2ccccc2)n2cnc(-c3cc(Cl)ccc3-n3cc(C(F)(F)F)nn3)cc2=O)cc1 [Example 14]"
class_name = "condition met"

[[record]]
compound = "O=C(NCc1ccccc1)[C@H](Cc1ccccc1)n1cnc(-c2cc(Cl)ccc2-n2cc(Cl)nn2)cc1=O [Example 19]"
class_name = "condition not met"

[[record]]
compound = "Cc1c(CC(C(=O)Nc2ccc(C(=O)O)cc2)N2CCC(c3c(F)ccc(Cl)c3F)=CC2=O)ccc2cn[nH]c12 (centres unmarked) [Example 135]"
class_name = "condition not met"

[[record]]
compound = "O=C(Nc1ccccc1)[C@H](Cc1ccccc1)n1cnc(-c2cc(Cl)ccc2-n2cc(Cl)nn2)cc1=O [Example 12]"
class_name = "condition not met"

[[record]]
compound = "O=C(Nc1ccc2c(c1)OCO2)[C@H](Cc1ccccc1)n1cnc(-c2cc(Cl)ccc2-n2cc(Cl)nn2)cc1=O [Example 18]"
class_name = "condition not met"

[[record]]
compound = "COC(=O)Cn1cc(NC(=O)[C@H](Cc2ccccc2)n2cnc(-c3cc(Cl)ccc3-n3cc(Cl)nn3)cc2=O)cn1 [Example 10]"
class_name = "condition not met"

[[record]]
compound = "O=C(Nc1ccc2[nH]c(C(F)(F)F)nc2c1)[C@H](Cc1ccccc1)n1cnc(-c2cc(Cl)ccc2-n2cc(Cl)nn2)cc1=O [Example 16]"
class_name = "condition met"


###

The following compounds each carry a recorded pKi for purified human Factor XIa (Homo sapiens, UniProt P03951).
pKi: −log10 of the molar value.
MEASURED_ATTRIBUTE: pKi

[[record]]
chemical_structure = "O=C(Nc1ccnc2ccc(Cl)cc12)[C@H](Cc1ccccc1)n1cnc(-c2cc(Cl)ccc2-n2cc(Cl)nn2)cc1=O"
target_system = "purified human Factor XIa (Homo sapiens, UniProt P03951)"
measured_attribute = "pKi"
reading = 5.15

[[record]]
chemical_structure = "O=C1NCCc2cc(NC(=O)[C@H](Cc3ccccc3)n3cnc(-c4cc(Cl)ccc4-n4cc(Cl)nn4)cc3=O)ccc21"
target_system = "purified human Factor XIa (Homo sapiens, UniProt P03951)"
measured_attribute = "pKi"
reading = 7.56

[[record]]
chemical_structure = "Cc1nc2ccc(NC(=O)[C@H](Cc3ccccc3)n3cnc(-c4cc(Cl)ccc4-n4cc(Cl)nn4)cc3=O)cc2o1"
target_system = "purified human Factor XIa (Homo sapiens, UniProt P03951)"
measured_attribute = "pKi"
reading = 7.42

[[record]]
chemical_structure = "Cn1cnc2cc(NC(=O)[C@H](Cc3ccccc3)n3cnc(-c4cc(Cl)ccc4-n4cc(Cl)nn4)cc3=O)cnc21"
target_system = "purified human Factor XIa (Homo sapiens, UniProt P03951)"
measured_attribute = "pKi"
reading = 6.38

[[record]]
chemical_structure = "CCCNC(=O)[C@H](Cc1ccccc1)n1cnc(-c2cc(Cl)ccc2-n2cc(Cl)nn2)cc1=O"
target_system = "purified human Factor XIa (Homo sapiens, UniProt P03951)"
measured_attribute = "pKi"
reading = 5.71

[[record]]
chemical_structure = "O=C(Nc1ccc(Cc2ccncc2)cc1)[C@H](Cc1ccccc1)n1cnc(-c2cc(Cl)ccc2-n2cc(Cl)nn2)cc1=O"
target_system = "purified human Factor XIa (Homo sapiens, UniProt P03951)"
measured_attribute = "pKi"
reading = 6.95

[[record]]
chemical_structure = "O=C(Nc1ccc2[nH]ccc2n1)[C@H](Cc1ccccc1)n1cnc(-c2cc(Cl)ccc2-n2cc(Cl)nn2)cc1=O"
target_system = "purified human Factor XIa (Homo sapiens, UniProt P03951)"
measured_attribute = "pKi"
reading = 6.81

[[record]]
chemical_structure = "O=C(Nc1ccnc2[nH]ncc12)[C@H](Cc1ccccc1)n1cnc(-c2cc(Cl)ccc2-n2cc(Cl)nn2)cc1=O"
target_system = "purified human Factor XIa (Homo sapiens, UniProt P03951)"
measured_attribute = "pKi"
reading = 6.67

[[record]]
chemical_structure = "CN1CCN(C(=O)[C@H](Cc2ccccc2)n2cnc(-c3cc(Cl)ccc3-n3cc(Cl)nn3)cc2=O)CC1"
target_system = "purified human Factor XIa (Homo sapiens, UniProt P03951)"
measured_attribute = "pKi"
reading = 5.36

[[record]]
chemical_structure = "O=C([C@H](Cc1ccccc1)n1cnc(-c2cc(Cl)ccc2-n2cc(Cl)nn2)cc1=O)N1CCOCC1"
target_system = "purified human Factor XIa (Homo sapiens, UniProt P03951)"
measured_attribute = "pKi"
reading = 5.35

[[record]]
chemical_structure = "CC(=O)N1CCN(C(=O)[C@H](Cc2ccccc2)n2cnc(-c3cc(Cl)ccc3-n3cc(Cl)nn3)cc2=O)CC1"
target_system = "purified human Factor XIa (Homo sapiens, UniProt P03951)"
measured_attribute = "pKi"
reading = 5.13

[[record]]
chemical_structure = "O=C(Nc1ccc2cn[nH]c2c1)[C@H](Cc1ccccc1)n1cnc(-c2cc(Cl)ccc2-n2cc(Cl)nn2)cc1=O"
target_system = "purified human Factor XIa (Homo sapiens, UniProt P03951)"
measured_attribute = "pKi"
reading = 7.80

[[record]]
chemical_structure = "O=C(NCCO)[C@H](Cc1ccccc1)n1cnc(-c2cc(Cl)ccc2-n2cc(Cl)nn2)cc1=O"
target_system = "purified human Factor XIa (Homo sapiens, UniProt P03951)"
measured_attribute = "pKi"
reading = 5.26

[[record]]
chemical_structure = "N#Cc1cccc(C[C@@H](C(=O)Nc2ccc(C(=O)O)cc2)N2CCC(c3cc(Cl)ccc3-n3ccnn3)=CC2=O)c1"
target_system = "purified human Factor XIa (Homo sapiens, UniProt P03951)"
measured_attribute = "pKi"
reading = 7.38

